Data credit: patent US20220259235A1

Molecular target: Ba/F3-Δ19del/T790M/C797S (Homo sapiens, UniProt P00533, T790M/C797S, cells depend on it, form not given)
Sequence (P00533 with tags, fused parts or gaps DEL746-750/T790M/C797S, form open): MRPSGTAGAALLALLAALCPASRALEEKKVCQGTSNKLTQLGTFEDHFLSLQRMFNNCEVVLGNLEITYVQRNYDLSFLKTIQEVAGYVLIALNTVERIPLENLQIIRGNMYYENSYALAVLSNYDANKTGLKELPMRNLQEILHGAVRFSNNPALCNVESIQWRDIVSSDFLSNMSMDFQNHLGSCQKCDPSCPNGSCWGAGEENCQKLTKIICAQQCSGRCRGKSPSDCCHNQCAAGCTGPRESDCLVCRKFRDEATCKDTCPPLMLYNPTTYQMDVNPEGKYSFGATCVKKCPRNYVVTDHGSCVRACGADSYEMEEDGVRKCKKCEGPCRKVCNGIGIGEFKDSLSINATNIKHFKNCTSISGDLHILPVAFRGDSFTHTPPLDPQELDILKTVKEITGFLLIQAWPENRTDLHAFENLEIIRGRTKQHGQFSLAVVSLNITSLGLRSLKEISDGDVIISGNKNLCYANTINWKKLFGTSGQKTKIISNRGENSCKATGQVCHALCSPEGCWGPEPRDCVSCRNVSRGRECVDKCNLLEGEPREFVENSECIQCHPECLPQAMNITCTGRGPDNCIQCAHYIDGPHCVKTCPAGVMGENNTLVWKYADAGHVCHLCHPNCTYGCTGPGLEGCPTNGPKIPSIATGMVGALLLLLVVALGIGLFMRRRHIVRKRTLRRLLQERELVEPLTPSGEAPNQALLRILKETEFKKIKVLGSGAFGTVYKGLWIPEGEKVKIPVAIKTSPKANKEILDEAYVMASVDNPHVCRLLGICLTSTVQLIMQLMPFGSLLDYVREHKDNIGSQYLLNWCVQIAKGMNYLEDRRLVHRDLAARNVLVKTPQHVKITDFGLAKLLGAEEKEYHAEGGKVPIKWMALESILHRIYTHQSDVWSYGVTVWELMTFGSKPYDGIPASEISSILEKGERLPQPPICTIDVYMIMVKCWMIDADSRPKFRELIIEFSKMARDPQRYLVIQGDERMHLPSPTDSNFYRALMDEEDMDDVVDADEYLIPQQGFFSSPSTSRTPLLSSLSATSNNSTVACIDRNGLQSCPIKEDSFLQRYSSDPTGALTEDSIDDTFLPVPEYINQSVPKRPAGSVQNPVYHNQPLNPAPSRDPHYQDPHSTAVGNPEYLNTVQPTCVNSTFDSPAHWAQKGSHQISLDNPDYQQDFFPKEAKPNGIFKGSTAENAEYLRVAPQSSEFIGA
Experiment: Ba/F3-Δ19del/T790M/C797S cell proliferation assay (CellTiter Glo, 72 h)
Assay type: cell-based
Conditions: CTG, numeric values, read-out: BaF3 Δ19del/T790M/C797S IC50
Description: Cell line: Ba/F3 cells with stable overexpression of Δ19del/T790M/C797S or L858R/T790M/C797S mutant genes, named Ba/F3-Δ19del/T790M/C797S and Ba/F3-L858R/T790M/C797S, and A431 EGFR wild-type cell line. RPMI 1640 and 10% FBS and 1% PS; _EM, 10% PBS and 1% PS […] c) Read luminous signal value with Perkin Elmer reader. […] The data were analyzed by GraphPad Prism 6.0 software to obtain the fitting curve of compound activity. […]
assay.readout: GI50 (nM)
Give just the numeric value; nM need not be written.

COc1cc(N2CCC(N3CCN(C)CC3)CC2)c(-c2cnn(C(F)F)c2)cc1Nc1ncc(Br)c(Nc2ccc3nccnc3c2P(C)(C)=O)n1 [Compound 17] ... 3.5
COc1cc(N2CCN3CCCCC3C2)c(-c2cnn(C)c2)cc1Nc1ncc(Cl)c(Nc2ccc3nccnc3c2P(C)(C)=O)n1 (stereo in doubt) [Compound 18] ... 6.7
COc1cc(N2CCN(C3CCCC3)CC2)c(-c2cnn(C)c2)cc1Nc1ncc(Br)c(Nc2ccc3nccnc3c2P(C)(C)=O)n1 [Compound 25] ... 2.5

Then this molecule:
Req: Identify measured GI50 corresponding to CCn1cc(-c2cc(Nc3ncc(Br)c(Nc4ccc(C)c(C)c4P(C)(C)=O)n3)c(OC)cc2N2CCC(N3CCN(C)CC3)CC2)cn1 [Compound 22]
Resp: 24.6

----------
biological target: Ba/F3-Δ19del/T790M/C797S (Homo sapiens, UniProt P00533, T790M/C797S, cells depend on it, form not given); experiment: Ba/F3-Δ19del/T790M/C797S cell proliferation assay (CellTiter Glo, 72 h); type: cell-based; conditions: CTG, numeric values, read-out: BaF3 Δ19del/T790M/C797S IC50
assay.readout: GI50 (nM)
Write the answer as a number in nM, unit excluded.

COc1cc(N2CCOCC2)c(-c2cnn(C)c2)cc1Nc1ncc(Cl)c(Nc2ccc3nccnc3c2P(C)(C)=O)n1 ... 8
COc1cc(N2CCC(N3CCCCC3)CC2)c(-c2cnn(C)c2)cc1Nc1ncc(Cl)c(Nc2ccc3nccnc3c2P(C)(C)=O)n1 ... 3
CCn1cc(-c2cc(Nc3ncc(Br)c(Nc4ccc(C)c(C)c4P(C)(C)=O)n3)c(OC)cc2N2CCC(N3CCCCC3)CC2)cn1 ... 0.7
CCn1cc(-c2cc(Nc3ncc(Br)c(Nc4ccc5nccnc5c4P(C)(C)=O)n3)c(OC)cc2N2CCC(N3CCN(C)CC3)CC2)cn1 ... 1
COc1cc(N2CCC(N(C)C)CC2)c(-c2cnn(C)c2)cc1Nc1ncc(Cl)c(Nc2ccc(C)c(C)c2P(C)(C)=O)n1 ... 10.2

Req: Return value of GI50 for input COc1cc(N2CCN(C3CCCC3)CC2)c(-c2cnn(C)c2)cc1Nc1ncc(Br)c(Nc2ccc(C)c(C)c2P(C)(C)=O)n1 , no commentary.
Resp: 4.6

----------
tested on: A431 EGFR wild-type cell line; assay: A431 EGFR wild-type cell proliferation assay (CellTiter Glo, 72 h); assay type: cell-based; details: Homo sapiens, A-431, CTG, read-out: A431 EGFR WT IC50
assay.readout: IC50 (nM)
Return type: number; implicit unit nM.

COc1cc(N2CCOCC2)c(-c2cnn(C)c2)cc1Nc1ncc(Cl)c(Nc2ccc3nccnc3c2P(C)(C)=O)n1 [Compound 9] ... 252
COc1cc(N2CCN(C3CCCC3)CC2)c(-c2cnn(C)c2)cc1Nc1ncc(Br)c(Nc2ccc3nc(C4CC4)ccc3c2P(C)(C)=O)n1 [Compound 27] ... 1170
COc1cc(N2CCC(N3CCN(C)CC3)CC2)c(-c2cnn(C(F)F)c2)cc1Nc1ncc(Br)c(Nc2ccc3nccnc3c2P(C)(C)=O)n1 [Compound 17] ... 120

Shift focus to the following entry.
Req: Identify the reported IC50 for the following entry. CCn1cc(-c2cc(Nc3ncc(Br)c(Nc4ccc5nccnc5c4P(C)(C)=O)n3)c(OC)cc2N2CCC(N3CCN(C)CC3)CC2)cn1 [Compound 19]
Resp: 135
